Origin of measurements: the supplement of paper PMC6757056

normalized RNA/DNA level with ligand (log10) reference
B1: library; a variant is named by its letters at N, in order (parent)
chain: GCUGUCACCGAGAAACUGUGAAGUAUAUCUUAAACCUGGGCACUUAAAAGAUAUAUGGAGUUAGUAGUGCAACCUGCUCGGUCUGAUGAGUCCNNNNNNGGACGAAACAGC

# Variants of: B1
# Assay Explanation: normalized RNA/DNA level with ligand (relative to sTRSVctl = 100) (log10 (% of sTRSVctl)); HEK293T; ligand: cyclic di-GMP (c-di-GMP-II aptamer); ligand concentration (+) RNA-Seq: 1 mM; higher = less ribozyme self-cleavage, higher mRNA level
# Assay Setup: reporter: mCherry (pCS4076), ligand present: yes
Measure: normalized RNA/DNA level with ligand (log10)

{"Variant Key": "UUGCAA", "Endpoint Result": 1.81}
{"Variant Key": "GGAUAC", "Endpoint Result": 1.78}
{"Variant Key": "CUCAAG", "Endpoint Result": 1.84}
{"Variant Key": "AAGCGC", "Endpoint Result": 1.84}
{"Variant Key": "GCAAUU", "Endpoint Result": 1.69}
{"Variant Key": "GAAGGA", "Endpoint Result": 1.59}
{"Variant Key": "CCGAAU", "Endpoint Result": 1.68}
{"Variant Key": "GGCAUC", "Endpoint Result": 1.81}
{"Variant Key": "AGGAUA", "Endpoint Result": 1.49}
{"Variant Key": "CUGAAU", "Endpoint Result": 1.61}
{"Variant Key": "UGUUAC", "Endpoint Result": 1.91}
{"Variant Key": "CGUCGA", "Endpoint Result": 1.77}
{"Variant Key": "CAGAGC", "Endpoint Result": 1.83}
{"Variant Key": "GCGUCU", "Endpoint Result": 1.83}
{"Variant Key": "CUUUUU", "Endpoint Result": 1.79}
{"Variant Key": "UGAGAC", "Endpoint Result": 1.8}
{"Variant Key": "AUAGGG", "Endpoint Result": 1.59}
{"Variant Key": "GAGCCC", "Endpoint Result": 1.92}
{"Variant Key": "UUCUGG", "Endpoint Result": 1.89}
{"Variant Key": "GCGAUU", "Endpoint Result": 1.69}
{"Variant Key": "GCCACA", "Endpoint Result": 1.81}
{"Variant Key": "UAUAUU", "Endpoint Result": 1.86}
{"Variant Key": "UACCGG", "Endpoint Result": 1.87}
{"Variant Key": "AGCUGC", "Endpoint Result": 1.87}
{"Variant Key": "GUGGAC", "Endpoint Result": 1.75}
{"Variant Key": "CAGUAC", "Endpoint Result": 1.74}
{"Variant Key": "AGCACU", "Endpoint Result": 1.82}
{"Variant Key": "GGGACA", "Endpoint Result": 1.75}
{"Variant Key": "UAGGGC", "Endpoint Result": 1.78}
{"Variant Key": "CGGAGU", "Endpoint Result": 1.8}
{"Variant Key": "CUUCUA", "Endpoint Result": 1.67}
{"Variant Key": "CGACCA", "Endpoint Result": 1.77}
{"Variant Key": "CGUGGG", "Endpoint Result": 1.8}
{"Variant Key": "AUGGAA", "Endpoint Result": 1.53}
{"Variant Key": "CUAUAA", "Endpoint Result": 1.6}
{"Variant Key": "GUUUUU", "Endpoint Result": 1.87}
{"Variant Key": "AUGGUC", "Endpoint Result": 1.81}
{"Variant Key": "AAGAUG", "Endpoint Result": 1.71}
{"Variant Key": "CUUGGC", "Endpoint Result": 1.92}
{"Variant Key": "UCAAGU", "Endpoint Result": 1.73}
{"Variant Key": "AUACCA", "Endpoint Result": 1.79}
{"Variant Key": "CCGGCC", "Endpoint Result": 1.86}
{"Variant Key": "CGGAUU", "Endpoint Result": 1.54}
{"Variant Key": "CUCUUG", "Endpoint Result": 1.86}
{"Variant Key": "GAUCGG", "Endpoint Result": 1.82}
{"Variant Key": "UUUAAC", "Endpoint Result": 1.84}
{"Variant Key": "UUGAGU", "Endpoint Result": 1.83}
{"Variant Key": "ACCAUA", "Endpoint Result": 1.71}
{"Variant Key": "CUCCUA", "Endpoint Result": 1.68}
{"Variant Key": "GCCGCC", "Endpoint Result": 1.82}
{"Variant Key": "GGUACU", "Endpoint Result": 1.82}
{"Variant Key": "GGUCAC", "Endpoint Result": 1.87}
{"Variant Key": "GCGGUC", "Endpoint Result": 1.52}
{"Variant Key": "UAGGCA", "Endpoint Result": 1.84}
{"Variant Key": "UGGCCC", "Endpoint Result": 1.96}
{"Variant Key": "CUGUUU", "Endpoint Result": 1.72}
{"Variant Key": "CAAGAC", "Endpoint Result": 1.8}
{"Variant Key": "CAGGUG", "Endpoint Result": 1.76}
{"Variant Key": "AAUAAU", "Endpoint Result": 1.8}
{"Variant Key": "AACUUG", "Endpoint Result": 1.85}
{"Variant Key": "CACGCG", "Endpoint Result": 1.83}
{"Variant Key": "ACGAGC", "Endpoint Result": 1.76}
{"Variant Key": "UAUUGG", "Endpoint Result": 1.87}
{"Variant Key": "GUUCUA", "Endpoint Result": 1.75}
{"Variant Key": "GAAACC", "Endpoint Result": 1.85}
{"Variant Key": "UACAGU", "Endpoint Result": 1.8}
{"Variant Key": "CCUUGA", "Endpoint Result": 1.83}
{"Variant Key": "CCACCG", "Endpoint Result": 1.89}
{"Variant Key": "AAGCCU", "Endpoint Result": 1.84}
{"Variant Key": "ACCGCA", "Endpoint Result": 1.8}
{"Variant Key": "CACGAU", "Endpoint Result": 1.83}
{"Variant Key": "GAGUUA", "Endpoint Result": 1.82}
{"Variant Key": "CGAGCU", "Endpoint Result": 1.88}
{"Variant Key": "AGGCUG", "Endpoint Result": 1.87}
{"Variant Key": "ACAGAA", "Endpoint Result": 1.47}
{"Variant Key": "AUGCGA", "Endpoint Result": 1.66}
{"Variant Key": "GUACGU", "Endpoint Result": 1.81}
{"Variant Key": "AGCAGC", "Endpoint Result": 1.86}
{"Variant Key": "GUGACU", "Endpoint Result": 1.8}
{"Variant Key": "GAUGCU", "Endpoint Result": 1.85}
{"Variant Key": "GCUCGA", "Endpoint Result": 1.73}
{"Variant Key": "UGCUGU", "Endpoint Result": 1.87}
{"Variant Key": "CACAAG", "Endpoint Result": 1.83}
{"Variant Key": "CGUACA", "Endpoint Result": 1.53}
{"Variant Key": "AAUUGG", "Endpoint Result": 1.74}
{"Variant Key": "CGUGGA", "Endpoint Result": 1.62}
{"Variant Key": "GCGUUA", "Endpoint Result": 1.75}
{"Variant Key": "AACCUG", "Endpoint Result": 1.73}
{"Variant Key": "UUGGUU", "Endpoint Result": 1.84}
{"Variant Key": "UUAGAC", "Endpoint Result": 1.83}
{"Variant Key": "UCGGCU", "Endpoint Result": 1.88}
